Origin of measurements: paper PMC3794980

// reported log10(IC50) for each item listed
biological target: DRB1*0701 (Homo sapiens, UniProt P01903+P01911, A100R/A102G/A103Q/D57E/D86V/E43K/F76Y/K127E/L162R/M171V/P40G/Q125H/Q99D/R33Q/R42Y/R54Q/S133A/S66F/T210M/V115G/Y107V/Y59L/Y89S); experiment: biochemical
Transform log10 | Measure IC50 | Unit nM

Entry C[C@@H](O)[C@H](NC(=O)[C@H](CO)NC(=O)[C@H](CO)NC(=O)[C@H](Cc1c[nH]cn1)NC(=O)[C@H](CCC(=O)O)NC(=O)[C@H](CCC(=O)O)NC(=O)[C@@H](N)CCCCN)C(=O)N[C@@H](Cc1c[nH]c2ccccc12)C(=O)N[C@@H](Cc1c[nH]cn1)C(=O)N[C@@H](Cc1ccc(O)cc1)C(=O)N[C@@H](CC(=O)O)C(=O)N[C@@H](CC(=O)O)C(=O)N[C@@H](CCC(=O)O)C(=O)N[C@@H](CC(N)=O)C(=O)N1CCC[C@H]1C(=O)N[C@@H](Cc1ccc(O)cc1)C(=O)N[C@@H](CCCCN)C(=O)O ; log10(IC50) = 3.40

Entry CC[C@H](C)[C@H](NC(=O)[C@H](C)NC(=O)[C@H](CC(N)=O)NC(=O)[C@H](C)N)C(=O)N[C@@H](Cc1ccccc1)C(=O)N[C@@H](CCCCN)C(=O)N[C@@H](CC(C)C)C(=O)N[C@H](C(=O)N[C@@H](Cc1ccc(O)cc1)C(=O)N[C@@H](CCC(N)=O)C(=O)N[C@@H](CC(N)=O)C(=O)N[C@@H](CCCCN)C(=O)N[C@H](C(=O)N[C@H](C(=O)N[C@@H](CCCCN)C(=O)N[C@H](C(=O)N[C@@H](CCC(N)=O)C(=O)O)C(C)C)C(C)C)C(C)C)[C@@H](C)O ; log10(IC50) = 1.40

Entry CSCC[C@H](NC(=O)[C@H](CCC(N)=O)NC(=O)[C@H](C)NC(=O)[C@H](Cc1ccc(O)cc1)NC(=O)[C@H](C)NC(=O)[C@H](CCCCN)NC(=O)CNC(=O)[C@H](CC(C)C)NC(=O)[C@H](CS)NC(=O)[C@H](C)NC(=O)[C@@H](NC(=O)[C@H](CCC(=O)O)NC(=O)[C@H](CCCNC(=N)N)NC(=O)[C@H](CC(C)C)NC(=O)[C@@H](N)CO)[C@@H](C)O)C(=O)N[C@@H](Cc1c[nH]c2ccccc12)C(=O)N[C@H](C(=O)O)[C@@H](C)O ; log10(IC50) = 3.47

Entry CC[C@H](C)[C@H](NC(=O)[C@H](Cc1ccc(O)cc1)NC(=O)CNC(=O)[C@H](CC(C)C)NC(=O)[C@H](CCCCN)NC(=O)[C@H](Cc1c[nH]cn1)NC(=O)[C@H](CC(C)C)NC(=O)CNC(=O)[C@H](CCC(=O)O)NC(=O)CNC(=O)[C@H](CCC(=O)O)NC(=O)[C@@H](NC(=O)CNC(=O)[C@H](CO)NC(=O)[C@H](Cc1ccc(O)cc1)NC(=O)[C@H](CO)NC(=O)[C@@H](N)CC(N)=O)C(C)C)C(=O)O ; log10(IC50) = 1.26

Entry CSCC[C@H](NC(=O)[C@H](CC(C)C)NC(=O)[C@H](CCCNC(=N)N)NC(=O)[C@H](Cc1c[nH]cn1)NC(=O)[C@H](CC(=O)O)NC(=O)[C@H](CS)NC(=O)[C@H](CC(C)C)NC(=O)[C@H](CCC(N)=O)NC(=O)[C@@H](NC(=O)[C@H](Cc1ccc(O)cc1)NC(=O)[C@@H](NC(=O)[C@@H](N)CCC(=O)O)C(C)C)[C@@H](C)O)C(=O)N[C@@H](CO)C(=O)N[C@@H](C)C(=O)N[C@@H](C)C(=O)O ; log10(IC50) = 3.22

====

target: DRB1*1501 (Homo sapiens, UniProt P01903+P01911); assay: biochemical
measure_name: IC50 (nM)
Just the number in nM, nothing appended.

compound	system	IC50 [nM]
CC[C@H](C)[C@H](NC(=O)[C@H](Cc1ccc(O)cc1)NC(=O)CNC(=O)[C@H](CC(C)C)NC(=O)[C@H](CCCCN)NC(=O)[C@H](Cc1c[nH]cn1)NC(=O)[C@H](CC(C)C)NC(=O)CNC(=O)[C@H](CCC(=O)O)NC(=O)CNC(=O)[C@H](CCC(=O)O)NC(=O)[C@@H](NC(=O)CNC(=O)[C@H](CO)NC(=O)[C@H](Cc1ccc(O)cc1)NC(=O)[C@H](CO)NC(=O)[C@@H](N)CC(N)=O)C(C)C)C(=O)O [NS5 501-517]	DRB1*1501 (Homo sapiens, UniProt P01903+P01911)	3050
CSCC[C@H](NC(=O)CNC(=O)[C@H](CCCCN)NC(=O)[C@H](CC(C)C)NC(=O)[C@H](CCC(=O)O)NC(=O)[C@H](CC(C)C)NC(=O)[C@H](CCCCN)NC(=O)[C@H](CC(=O)O)NC(=O)[C@H](CCSC)NC(=O)[C@H](CCCCN)NC(=O)[C@H](CC(C)C)NC(=O)[C@H](CCCNC(=N)N)NC(=O)[C@H](CS)NC(=O)[C@H](CCCCN)NC(=O)[C@@H](N)CC(C)C)C(=O)O [Envelope 281-295]	DRB1*1501 (Homo sapiens, UniProt P01903+P01911)	652
CC(C)C[C@H](NC(=O)[C@H](CCC(=O)O)NC(=O)[C@H](CCCCN)NC(=O)[C@@H](N)CCCNC(=N)N)C(=O)N[C@@H](CC(C)C)C(=O)N[C@H](C(=O)N[C@H](C(=O)N[C@@H](Cc1ccccc1)C(=O)N[C@@H](CCCCN)C(=O)N[C@@H](CC(N)=O)C(=O)N[C@@H](C)C(=O)N[C@@H](Cc1c[nH]cn1)C(=O)N[C@@H](C)C(=O)N[C@@H](CCCCN)C(=O)N[C@@H](CCCCN)C(=O)O)[C@@H](C)O)C(C)C [Envelope 231-245]	DRB1*1501 (Homo sapiens, UniProt P01903+P01911)	5.2
CC[C@H](C)[C@H](NC(=O)[C@H](C)NC(=O)[C@H](CC(N)=O)NC(=O)[C@H](CO)NC(=O)[C@H](C)NC(=O)[C@H](CC(C)C)NC(=O)[C@H](CCCNC(=N)N)NC(=O)[C@H](CC(C)C)NC(=O)[C@H](CC(=O)O)NC(=O)[C@H](CCCNC(=N)N)NC(=O)[C@H](CCCNC(=N)N)NC(=O)[C@H](Cc1c[nH]cn1)NC(=O)[C@H](Cc1ccccc1)NC(=O)[C@H](Cc1ccc(O)cc1)NC(=O)[C@@H](N)CCSC)C(=O)O [NS5 765-779]	DRB1*1501 (Homo sapiens, UniProt P01903+P01911)	118
CC[C@H](C)[C@H](NC(=O)[C@@H]1CCCN1C(=O)[C@H](CC(C)C)NC(=O)CNC(=O)[C@@H](N)CCCCN)C(=O)N[C@@H](CCCNC(=N)N)C(=O)N[C@@H](Cc1ccc(O)cc1)C(=O)N[C@@H](CCC(N)=O)C(=O)N[C@H](C(=O)N[C@H](C(=O)N[C@@H](C)C(=O)N[C@H](C(=O)N[C@@H](CCCCN)C(=O)N[C@@H](CO)C(=O)N[C@@H](CCC(=O)O)C(=O)O)[C@@H](C)O)[C@@H](C)O)[C@@H](C)O [NS3 237-251]	DRB1*1501 (Homo sapiens, UniProt P01903+P01911)	638

Entry CC[C@H](C)[C@H](NC(=O)[C@@H](N)CCCCN)C(=O)N1CCC[C@H]1C(=O)NCC(=O)NCC(=O)N[C@@H](C)C(=O)N[C@@H](CCSC)C(=O)N[C@@H](Cc1ccc(O)cc1)C(=O)N[C@@H](C)C(=O)N[C@@H](CC(=O)O)C(=O)N[C@@H](CC(=O)O)C(=O)N[C@H](C(=O)N[C@@H](C)C(=O)NCC(=O)N[C@@H](Cc1c[nH]c2ccccc12)C(=O)N[C@@H](CC(=O)O)C(=O)N[C@H](C(=O)O)[C@@H](C)O)[C@@H](C)O [NS5 523-539] ; IC50 = 15100

====

molecular target: DRB1*0901 (Homo sapiens, UniProt P01903+P01911, A100R/A103E/D57H/D86V/F55Y/F60I/F76Y/I96F/K127E/L162R/M171V/P40D/Q125H/Q99R/R33Q/R42F/S133A/S66N/T210M/V115G/W38K/Y107V/Y59G/Y89S); assay: biochemical; type: binding; details: competitive inhibition of radiolabeled standard peptide; '-' distinct from ND; read-out: Binding Affinity (nM) DRB1*0901
measure_name: log10 IC50 (log10 of the value in nM)
Transform log10 | Measure IC50 | Unit nM

Worked set:
line_notation	log10 IC50
CC[C@H](C)[C@H](NC(=O)[C@H](Cc1c[nH]c2ccccc12)NC(=O)[C@H](Cc1ccc(O)cc1)NC(=O)CNC(=O)[C@H](CCSC)NC(=O)[C@H](CC(=O)O)NC(=O)[C@H](C)NC(=O)[C@H](Cc1c[nH]cn1)NC(=O)[C@@H](NC(=O)[C@H](C)N)C(C)C)C(=O)N[C@@H](CCC(=O)O)C(=O)N[C@@H](CO)C(=O)N[C@@H](CCC(N)=O)C(=O)N[C@@H](CCCCN)C(=O)N[C@@H](CC(N)=O)C(=O)O	4.00
CC[C@H](C)[C@H](NC(=O)[C@H](CC(C)C)NC(=O)[C@H](CCCNC(=N)N)NC(=O)CNC(=O)[C@@H](N)CC(N)=O)C(=O)N[C@H](C(=O)N[C@@H](C)C(=O)N[C@@H](CC(N)=O)C(=O)N1CCC[C@H]1C(=O)N[C@H](C(=O)N[C@H](C(=O)N[C@H](C(=O)N[C@@H](CCCCN)C(=O)N[C@@H](CCCCN)C(=O)N[C@@H](CCC(=O)O)C(=O)O)[C@@H](C)O)C(C)C)C(C)C)[C@@H](C)O	2.52
CC[C@H](C)[C@H](NC(=O)[C@H](CC(C)C)NC(=O)[C@H](CCCCN)NC(=O)CN)C(=O)N[C@@H](Cc1c[nH]cn1)C(=O)N[C@@H](CCC(=O)O)C(=O)N[C@@H](Cc1c[nH]c2ccccc12)C(=O)N[C@@H](CS)C(=O)N[C@@H](CS)C(=O)N[C@@H](CCCNC(=N)N)C(=O)N[C@@H](CO)C(=O)N[C@@H](CS)C(=O)N[C@H](C(=O)N[C@@H](CC(C)C)C(=O)N1CCC[C@H]1C(=O)O)[C@@H](C)O	4.06
CC(C)C[C@H](NC(=O)[C@@H](NC(=O)CNC(=O)[C@H](CC(N)=O)NC(=O)[C@H](CO)NC(=O)[C@H](Cc1c[nH]c2ccccc12)NC(=O)[C@H](CC(C)C)NC(=O)[C@@H](NC(=O)[C@H](Cc1c[nH]cn1)NC(=O)[C@H](CO)NC(=O)[C@H](CCCCN)NC(=O)[C@@H]1CCCN1C(=O)[C@@H](N)Cc1c[nH]c2ccccc12)[C@@H](C)O)C(C)C)C(=O)N[C@@H](CCC(=O)O)C(=O)N[C@@H](CO)C(=O)O	3.97

--- query ---
Entry CC[C@H](C)[C@H](NC(=O)[C@H](CCCCN)NC(=O)[C@H](C)NC(=O)[C@H](CCCCN)NC(=O)CNC(=O)[C@H](Cc1c[nH]c2ccccc12)NC(=O)[C@@H](N)[C@@H](C)O)C(=O)N[C@H](C(=O)N[C@H](C(=O)N[C@@H](C)C(=O)N[C@@H](CCC(=O)O)C(=O)N[C@H](C(=O)N[C@@H](CCC(N)=O)C(=O)N[C@@H](CC(N)=O)C(=O)N[C@@H](CO)C(=O)O)[C@@H](C)O)[C@@H](C)O)C(C)C ; log10 IC50 = 3.42
